measured-target: human NGF (Homo sapiens, UniProt P01138)
Sequence (P01138 122-241): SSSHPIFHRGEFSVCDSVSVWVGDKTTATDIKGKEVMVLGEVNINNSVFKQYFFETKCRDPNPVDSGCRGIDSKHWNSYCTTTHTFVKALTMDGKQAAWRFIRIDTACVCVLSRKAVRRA
test-description: BIAcore screening assay of Fab library clones (koff)
Type: binding
condition-context: Table 6: single CDR H3 or L3 mutation in 8L2-6D5 template
Listed here are molecules together with their documented koff.

molecule	unit-annotation	koff
8L2-6D5: CDR-grafted antibody with V71K heavy chain framework substitution; template for affinity maturation (antibody, V domains shown) VH: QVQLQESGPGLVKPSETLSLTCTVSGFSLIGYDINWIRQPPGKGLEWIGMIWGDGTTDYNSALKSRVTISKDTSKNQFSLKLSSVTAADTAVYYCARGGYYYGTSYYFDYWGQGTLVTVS VL: DIQMTQSPSSLSASVGDRVTITCRASQDISNHLNWYQQKPGKAPKLLIYYISRFHSGVPSRFSGSGSGTDFTFTISSLQPEDIATYYCQQSKTLPYTFGQGTKLEIKRT	s⁻¹	0.001
Y107F: 8L2-6D5 template with CDR H3 mutation Y107F (antibody, V domains shown) VH: QVQLQESGPGLVKPSETLSLTCTVSGFSLIGYDINWIRQPPGKGLEWIGMIWGDGTTDYNSALKSRVTISKDTSKNQFSLKLSSVTAADTAVYYCARGGYYYGTSYFFDYWGQGTLVTVS VL: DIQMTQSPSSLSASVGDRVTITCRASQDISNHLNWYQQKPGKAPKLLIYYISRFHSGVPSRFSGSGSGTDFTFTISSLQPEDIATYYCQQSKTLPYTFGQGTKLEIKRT	s⁻¹	0.0014
D109G: 8L2-6D5 template with CDR H3 mutation D109G (antibody, V domains shown) VH: QVQLQESGPGLVKPSETLSLTCTVSGFSLIGYDINWIRQPPGKGLEWIGMIWGDGTTDYNSALKSRVTISKDTSKNQFSLKLSSVTAADTAVYYCARGGYYYGTSYYFGYWGQGTLVTVS VL: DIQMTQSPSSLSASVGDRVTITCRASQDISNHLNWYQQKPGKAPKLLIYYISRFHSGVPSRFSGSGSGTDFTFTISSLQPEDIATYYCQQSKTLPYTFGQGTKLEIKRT	s⁻¹	0.001
F108W: 8L2-6D5 template with CDR H3 mutation F108W (antibody, V domains shown) VH: QVQLQESGPGLVKPSETLSLTCTVSGFSLIGYDINWIRQPPGKGLEWIGMIWGDGTTDYNSALKSRVTISKDTSKNQFSLKLSSVTAADTAVYYCARGGYYYGTSYYWDYWGQGTLVTVS VL: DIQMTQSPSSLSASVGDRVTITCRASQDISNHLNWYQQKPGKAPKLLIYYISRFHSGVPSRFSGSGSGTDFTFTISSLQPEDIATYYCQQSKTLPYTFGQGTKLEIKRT	s⁻¹	0.00122
